- TARGET_UNDER_TEST: hCA IX (Homo sapiens, UniProt Q16790)
- ASSAY_EXPLANATION: stopped flow carbon dioxide hydrase assay, hCA IX
- ASSAY_SETUP: hCA IX over hCA I
Recorded Selectivity ratio I/IX values for a group of compounds are listed next.
PROPERTY: Selectivity ratio I/IX

> print(dat)
                                   compound                      target.under.test  endpoint.result
1  COc1ccc2nccc(NNC(=O)c3ccc(S(N)(=O)=O)cc3)c2c1  hCA IX (Homo sapiens, UniProt Q16790)              3.8
2  COc1ccc2nccc(Nc3ccc(S(N)(=O)=O)cc3)c2c1 [13b]  hCA IX (Homo sapiens, UniProt Q16790)             16.7
3  NS(=O)(=O)c1cccc(Nc2ccnc3cc(C(F)(F)F)cc(C(F)(F)F)c23)c1 [11d]  hCA IX (Homo sapiens, UniProt Q16790)              2.0
4  COc1ccc2nccc(Nc3ccc(C)c(S(N)(=O)=O)c3)c2c1 [11f]  hCA IX (Homo sapiens, UniProt Q16790)              2.6
5     COc1ccc2nccc(Nc3ccccc3S(N)(=O)=O)c2c1  hCA IX (Homo sapiens, UniProt Q16790)             22.1

* * *

- TARGET_UNDER_TEST: UniProtKB O43570
- ASSAY_EXPLANATION: stopped flow carbon dioxide hydrase assay, hCA XII
- ASSAY_SETUP: hCA XII over hCA I
PROPERTY: Selectivity ratio I/XII

> print(dat)
                                   compound  endpoint.result
1  NS(=O)(=O)c1cccc(Nc2ccnc3ccc(Cl)cc23)c1 [11c]              8.0
2      Cc1ccc2nccc(Nc3ccccc3S(N)(=O)=O)c2c1             24.5
3     NS(=O)(=O)c1ccccc1Nc1ccnc2ccc(Cl)cc12             32.3
4  COc1ccc2nccc(Nc3cccc(S(N)(=O)=O)c3)c2c1 [11b]              3.5

* * *

Recorded Selectivity ratio I/XII values for a group of molecules are listed next.
- TARGET_UNDER_TEST: hCA XII (Homo sapiens, UniProt O43570)
- Sequence (O43570 25-354): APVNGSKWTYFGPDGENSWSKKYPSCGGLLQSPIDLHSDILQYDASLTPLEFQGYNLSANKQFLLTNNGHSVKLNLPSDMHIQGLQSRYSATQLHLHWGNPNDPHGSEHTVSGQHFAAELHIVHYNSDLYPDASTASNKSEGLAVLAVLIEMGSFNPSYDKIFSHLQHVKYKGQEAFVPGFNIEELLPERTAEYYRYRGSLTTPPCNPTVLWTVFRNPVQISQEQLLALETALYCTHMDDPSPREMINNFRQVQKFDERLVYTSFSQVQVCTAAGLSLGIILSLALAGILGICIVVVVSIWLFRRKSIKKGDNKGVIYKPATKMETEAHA
- ASSAY_EXPLANATION: stopped flow carbon dioxide hydrase assay, hCA XII
- ASSAY_SETUP: hCA XII over hCA I
PROPERTY: Selectivity ratio I/XII

> print(dat)
                                    molecule  endpoint.result
 1  NS(=O)(=O)c1cccc(Nc2ccnc3cc(C(F)(F)F)cc(C(F)(F)F)c23)c1 [11d]              3.1
 2     COc1ccc2nccc(Nc3ccccc3S(N)(=O)=O)c2c1             20.5
 3  COc1ccc2nccc(Nc3ccc(S(N)(=O)=O)cc3)c2c1 [13b]              7.0
 4  COc1ccc2nccc(Nc3ccc(C)c(S(N)(=O)=O)c3)c2c1 [11f]             14.8
 5  Cc1ccc2nccc(Nc3ccc(C)c(S(N)(=O)=O)c3)c2c1 [11e]             39.7
 6  COc1ccc2nccc(NNC(=O)c3ccc(S(N)(=O)=O)cc3)c2c1              3.2
 7  Cc1ccc2nccc(Nc3cccc(S(N)(=O)=O)c3)c2c1 [11a]             16.1
 8  NS(=O)(=O)c1ccc(Nc2ccnc3ccc(Cl)cc23)cc1 [13c]              6.4
 9  Cc1ccc2nccc(Nc3ccc(S(N)(=O)=O)cc3)c2c1 [13a]              8.0
10  Cc1ccc(Nc2ccnc3ccc(Cl)cc23)cc1S(N)(=O)=O [11g]             48.8

* * *

Recorded Selectivity ratio II/IX values for a group of molecules are listed next.
- TARGET_UNDER_TEST: hCA IX (Homo sapiens)
- ASSAY_EXPLANATION: stopped flow carbon dioxide hydrase assay, hCA IX
- ASSAY_SETUP: hCA IX over hCA II
PROPERTY: Selectivity ratio II/IX

> print(dat)
                                   molecule                 property  endpoint.result
1  Cc1ccc2nccc(Nc3ccc(S(N)(=O)=O)cc3)c2c1 [13a]  Selectivity ratio II/IX              1.4
2  COc1ccc2nccc(Nc3ccc(S(N)(=O)=O)cc3)c2c1 [13b]  Selectivity ratio II/IX             10.6
3  Cc1ccc(Nc2ccnc3ccc(Cl)cc23)cc1S(N)(=O)=O [11g]  Selectivity ratio II/IX             20.3
4  NS(=O)(=O)c1cccc(Nc2ccnc3cc(C(F)(F)F)cc(C(F)(F)F)c23)c1 [11d]  Selectivity ratio II/IX              4.2

* * *

Recorded Selectivity ratio I/IX values for a group of compounds are listed next.
- TARGET_UNDER_TEST: hCA IX (Homo sapiens, UniProt Q16790)
- ASSAY_EXPLANATION: stopped flow carbon dioxide hydrase assay, hCA IX
- ASSAY_SETUP: hCA IX over hCA I
PROPERTY: Selectivity ratio I/IX

> print(dat)
                                   compound                property  endpoint.result
1  Cc1ccc2nccc(Nc3ccc(C)c(S(N)(=O)=O)c3)c2c1 [11e]  Selectivity ratio I/IX             33.8
2  NS(=O)(=O)c1ccccc1Nc1ccnc2ccc(Cl)cc12 [9c]  Selectivity ratio I/IX             18.9
3  NS(=O)(=O)c1ccc(Nc2ccnc3ccc(Cl)cc23)cc1 [13c]  Selectivity ratio I/IX              3.0
4  NS(=O)(=O)c1cccc(Nc2ccnc3ccc(Cl)cc23)c1 [11c]  Selectivity ratio I/IX             52.7
5  Cc1ccc2nccc(Nc3cccc(S(N)(=O)=O)c3)c2c1 [11a]  Selectivity ratio I/IX              9.5
6  Cc1ccc(Nc2ccnc3ccc(Cl)cc23)cc1S(N)(=O)=O [11g]  Selectivity ratio I/IX             38.9
7  Cc1ccc2nccc(Nc3ccccc3S(N)(=O)=O)c2c1 [9a]  Selectivity ratio I/IX             15.3
8  COc1ccc2nccc(Nc3cccc(S(N)(=O)=O)c3)c2c1 [11b]  Selectivity ratio I/IX              3.0
9  Cc1ccc2nccc(Nc3ccc(S(N)(=O)=O)cc3)c2c1 [13a]  Selectivity ratio I/IX              3.0

* * *

Recorded IC50 values for a group of compounds are listed next.
- System: MDA-MB-231
- ASSAY_EXPLANATION: 72 h MTT anti-proliferative assay under hypoxic conditions, MDA-MB-231
- Type: cell-based
- ASSAY_SETUP: Homo sapiens, mean ± S.D. of three experiments

COMPOUND	IC50 [µM]
COc1ccc2nccc(Nc3ccc(S(N)(=O)=O)cc3)c2c1 [13b]	2.24
NS(=O)(=O)c1cccc(Nc2ccnc3ccc(Cl)cc23)c1 [11c]	1.03
COc1cccc2c1C(=O)c1c(O)c3c(c(O)c1C2=O)C[C@@](O)(C(=O)CO)C[C@@H]3O[C@H]1C[C@H](N)[C@H](O)[C@H](C)O1 [Doxorubicin, reference compound]	1.67

* * *

- TARGET_UNDER_TEST: hCA XII (Homo sapiens)
- ASSAY_EXPLANATION: stopped flow carbon dioxide hydrase assay, hCA XII
- ASSAY_SETUP: hCA XII over hCA II
PROPERTY: Selectivity ratio II/XII

> print(dat)
                                   molecule                  property  endpoint.result
1  COc1ccc2nccc(NNC(=O)c3ccc(S(N)(=O)=O)cc3)c2c1 [compound 16]  Selectivity ratio II/XII              1.2
2  COc1ccc2nccc(Nc3ccc(S(N)(=O)=O)cc3)c2c1 [13b]  Selectivity ratio II/XII              4.4
3  COc1ccc2nccc(Nc3ccc(C)c(S(N)(=O)=O)c3)c2c1 [11f]  Selectivity ratio II/XII              6.6

* * *

Recorded Ki values for a group of compounds are listed next.
- TARGET_UNDER_TEST: hCA XII (Homo sapiens)
- ASSAY_EXPLANATION: stopped flow carbon dioxide hydrase assay, hCA XII
PROPERTY: Ki (nM)

> print(dat)
                                   compound  property  endpoint.result
1      Cc1ccc2nccc(Nc3ccccc3S(N)(=O)=O)c2c1        Ki             22.8
2  NS(=O)(=O)c1ccc(Nc2ccnc3ccc(Cl)cc23)cc1 [13c]        Ki              8.7
3  Cc1ccc2nccc(Nc3ccc(S(N)(=O)=O)cc3)c2c1 [13a]        Ki              9.8

Taken from paper PMC8541628.
